Biological target: human NHE3 (Homo sapiens)
Sequence (P48764 26-834): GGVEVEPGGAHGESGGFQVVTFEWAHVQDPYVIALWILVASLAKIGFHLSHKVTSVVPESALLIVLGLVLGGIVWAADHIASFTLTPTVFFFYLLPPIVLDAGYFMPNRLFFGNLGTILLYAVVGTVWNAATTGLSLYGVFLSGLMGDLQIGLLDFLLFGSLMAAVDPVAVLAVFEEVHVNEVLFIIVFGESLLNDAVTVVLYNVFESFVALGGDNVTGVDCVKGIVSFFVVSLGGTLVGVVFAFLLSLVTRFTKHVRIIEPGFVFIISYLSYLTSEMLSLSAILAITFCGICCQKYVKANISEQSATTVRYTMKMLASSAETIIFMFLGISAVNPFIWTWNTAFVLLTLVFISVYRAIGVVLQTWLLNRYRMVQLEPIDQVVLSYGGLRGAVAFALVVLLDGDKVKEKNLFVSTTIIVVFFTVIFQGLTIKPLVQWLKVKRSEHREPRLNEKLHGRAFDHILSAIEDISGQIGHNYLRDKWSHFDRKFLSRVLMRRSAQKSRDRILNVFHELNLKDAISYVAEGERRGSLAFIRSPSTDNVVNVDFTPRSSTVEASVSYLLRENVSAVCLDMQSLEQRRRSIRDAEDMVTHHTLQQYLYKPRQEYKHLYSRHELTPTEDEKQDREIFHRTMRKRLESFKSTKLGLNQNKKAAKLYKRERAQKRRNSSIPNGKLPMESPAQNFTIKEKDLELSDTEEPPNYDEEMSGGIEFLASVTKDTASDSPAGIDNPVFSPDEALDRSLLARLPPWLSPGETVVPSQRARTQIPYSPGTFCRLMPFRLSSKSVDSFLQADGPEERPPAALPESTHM
Experiment: NHE3 inhibition test (recovery of intracellular pH in cell line stably expressing human NHE3)
Conditions: OK cells deficient in endogenous NHE stably expressing human NHE3; BCECF fluorescence, initial rate of pH recovery; read-out: human NHE3 inhibitory activity IC50
Experimental: (1) Preparation of Cell Line Deficient in Endogenous NHE […] NHE3 activity measurement method using cell: The activity was determined by using the NHE3-mediated recovery of intracellular pH occurring after intracellular acidification, as an index. The intracellular pH was measured by a partial modification of the pH-sensitive fluorescent indicator method reported by Tsien et al. (Proc. Natl. Acad. Sci. USA., 1984, 81, 7436-7440). […]
Counter-ions that a name gives are not always drawn.
Assay Readout: IC50 (nM)
Unit nM implied. Number only.

Molecule	Numeric Result
CN1Cc2c(Cl)cc(Cl)cc2[C@H](c2cccc(-c3ccc(NCCOCCOCCOCCNC(=O)NCCCCNC(=O)NCCOCCOCCOCCNc4ccc(-c5cccc([C@@H]6CN(C)Cc7c(Cl)cc(Cl)cc76)c5)cn4)nc3)c2)C1 [Example 7-17, hydrochloride]	4.4

// field: IC50; key: CN1Cc2c(Cl)cc(Cl)cc2[C@H](c2cccc(-c3cnnc(NCCOCCOCCNC(=O)NCCCCNC(=O)NCCOCCOCCNc4cc(-c5cccc([C@@H]6CN(C)Cc7c(Cl)cc(Cl)cc76)c5)cnn4)c3)c2)C1 ; value = 12

====

Molecular target: human NHE3 (Homo sapiens, UniProt P48764)
Sequence (P48764 26-834): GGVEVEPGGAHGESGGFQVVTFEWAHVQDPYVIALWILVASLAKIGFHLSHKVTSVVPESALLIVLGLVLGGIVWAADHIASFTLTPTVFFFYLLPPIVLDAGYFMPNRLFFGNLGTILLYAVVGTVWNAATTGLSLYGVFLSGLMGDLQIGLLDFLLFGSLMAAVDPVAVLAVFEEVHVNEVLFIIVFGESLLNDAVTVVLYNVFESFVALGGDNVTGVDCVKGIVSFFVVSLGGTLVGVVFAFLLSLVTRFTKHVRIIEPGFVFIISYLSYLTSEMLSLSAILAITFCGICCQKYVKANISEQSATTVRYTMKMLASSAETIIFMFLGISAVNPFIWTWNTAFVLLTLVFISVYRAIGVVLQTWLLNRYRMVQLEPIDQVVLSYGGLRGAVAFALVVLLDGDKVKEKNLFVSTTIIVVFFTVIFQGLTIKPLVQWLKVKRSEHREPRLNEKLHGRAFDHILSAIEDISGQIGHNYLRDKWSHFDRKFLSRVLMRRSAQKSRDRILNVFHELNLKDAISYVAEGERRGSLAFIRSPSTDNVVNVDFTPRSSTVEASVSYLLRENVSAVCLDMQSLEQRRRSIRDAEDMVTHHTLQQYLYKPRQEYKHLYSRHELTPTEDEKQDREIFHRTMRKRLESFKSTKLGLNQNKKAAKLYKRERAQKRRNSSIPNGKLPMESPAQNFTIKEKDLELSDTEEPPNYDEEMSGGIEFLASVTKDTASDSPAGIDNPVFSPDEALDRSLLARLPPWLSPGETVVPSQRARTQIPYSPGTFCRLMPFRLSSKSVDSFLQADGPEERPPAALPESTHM
Assay: NHE3 inhibition test (recovery of intracellular pH in cell line stably expressing human NHE3)
Conditions: OK cells deficient in endogenous NHE stably expressing human NHE3; BCECF fluorescence, initial rate of pH recovery; read-out: human NHE3 inhibitory activity IC50
Where a name gives a salt, the structure may show the parent alone.
Assay Readout: pIC50
By convention, pIC50 is the negative base-10 log of a molar concentration.

Illustrative cases are given below, each with its answer.
Compound	Numeric Result
CN1Cc2c(Cl)cc(Cl)cc2[C@H](c2cccc(-c3cc(NCCOCCOCCOCCNC(=O)[C@H](O)[C@@H](O)C(=O)NCCOCCOCCOCCNc4cc(-c5cccc([C@@H]6CN(C)Cc7c(Cl)cc(Cl)cc76)c5)ncn4)ncn3)c2)C1 [Example 8-10, hydrochloride]	8.49
CN1Cc2c(Cl)cc(Cl)cc2[C@H](c2cccc(-c3cn(CCOCCOCCOCCNC(=O)NCCN(CCCCN(CCNC(=O)NCCOCCOCCOCCn4cc(-c5cccc([C@@H]6CN(C)Cc7c(Cl)cc(Cl)cc76)c5)nn4)C(N)=O)C(N)=O)nn3)c2)C1.O=CO	8.26
CN1Cc2c(Cl)cc(Cl)cc2[C@H](c2cccc(-c3cnccn3)c2)C1 [Example 1-14, trifluoroacetate]	6.76
CN1Cc2c(Cl)cc(Cl)cc2[C@H](c2cccc(-c3cc(NCCOCCOCCOCCNC(=O)NCCCCNC(=O)NCCOCCOCCOCCNc4cnnc(-c5cccc([C@@H]6CN(C)Cc7c(Cl)cc(Cl)cc76)c5)c4)cnn3)c2)C1	7.75
CNc1cc(-c2cccc([C@@H]3CN(C)Cc4c(Cl)cc(Cl)cc43)c2)ncn1 [Example 1-15, trifluoroacetate]	6.93

// field: pIC50; key: CN1Cc2c(Cl)cc(Cl)cc2[C@H](c2cccc(-c3cnc(NCCOCCOCCOCCNC(=O)[C@H](O)[C@@H](O)C(=O)NCCOCCOCCOCCNc4ncc(-c5cccc([C@@H]6CN(C)Cc7c(Cl)cc(Cl)cc76)c5)cn4)nc3)c2)C1 [Example 8-21, formate] ; value = 8.49

// field: pIC50; key: CN1Cc2c(Cl)cc(Cl)cc2[C@H](c2cccc(-c3cnn(CCOCCOCCNC(=O)NCCCCNC(=O)NCCOCCOCCn4cc(-c5cccc([C@@H]6CN(C)Cc7c(Cl)cc(Cl)cc76)c5)cn4)c3)c2)C1 ; value = 8.35

// field: pIC50; key: CN1Cc2c(Cl)cc(Cl)cc2[C@H](c2cccc(-c3cncnc3)c2)C1 [Example 1-10, trifluoroacetate] ; value = 6.77

// field: pIC50; key: CN1Cc2c(Cl)cc(Cl)cc2[C@H](c2cccc(-c3cc(OCCOCCOCCOCCNC(=O)CCCCC(=O)NCCOCCOCCOCCOc4cc(-c5cccc([C@@H]6CN(C)Cc7c(Cl)cc(Cl)cc76)c5)ncn4)ncn3)c2)C1 [Example 8-23, hydrochloride] ; value = 8.33

// field: pIC50; key: CN1Cc2c(Cl)cc(Cl)cc2[C@H](c2cccc(-c3cn(CCOCCOCCOCCNC(=O)NCCOCCNC(=O)NCCOCCOCCOCCn4cc(-c5cccc([C@@H]6CN(C)Cc7c(Cl)cc(Cl)cc76)c5)nn4)nn3)c2)C1 ; value = 8.18

====

target: human NHE3 (Homo sapiens); test: NHE3 inhibition test (recovery of intracellular pH in cell line stably expressing human NHE3); conditions: OK cells deficient in endogenous NHE stably expressing human NHE3; BCECF fluorescence, initial rate of pH recovery; read-out: human NHE3 inhibitory activity IC50
Counter-ions that a name gives are not always drawn.
As shown below, each of these molecules has a reported pIC50 value.
By convention, pIC50 is the negative base-10 log of a molar concentration.

Molecule	Target Under Test	pIC50
COc1cc(-c2cccc([C@@H]3CN(C)Cc4c(Cl)cc(Cl)cc43)c2)ncn1 [Example 1-13, trifluoroacetate]	human NHE3 (Homo sapiens)	6.57
CN1Cc2c(Cl)cc(Cl)cc2[C@H](c2cccc(-c3cnc(NCCOCCOCCNC(=O)NCCCCNC(=O)NCCOCCOCCNc4ncc(-c5cccc([C@@H]6CN(C)Cc7c(Cl)cc(Cl)cc76)c5)cn4)nc3)c2)C1	human NHE3 (Homo sapiens)	7.96
CN1Cc2c(Cl)cc(Cl)cc2[C@H](c2cccc(-c3ccnnc3)c2)C1 [Example 1-17, trifluoroacetate]	human NHE3 (Homo sapiens)	6.96
CN1Cc2c(Cl)cc(Cl)cc2[C@H](c2cccc(-c3ccnc(NCCOCCOCCNC(=O)NCCCCNC(=O)NCCOCCOCCNc4cc(-c5cccc([C@@H]6CN(C)Cc7c(Cl)cc(Cl)cc76)c5)ccn4)c3)c2)C1	human NHE3 (Homo sapiens)	8.08

Below: the item to evaluate.
human NHE3 (Homo sapiens) data for CN1Cc2c(Cl)cc(Cl)cc2[C@H](c2cccc(-c3cn(CCOCCOCCOCCNC(=O)[C@@H](O)[C@H](O)C(=O)NCCOCCOCCOCCn4cc(-c5cccc([C@@H]6CN(C)Cc7c(Cl)cc(Cl)cc76)c5)nn4)nn3)c2)C1 [Example 8-9, hydrochloride] ; its pIC50: 8.44
